System: Radical scavenging activity
PROCEDURE_TEXT: Antioxidant activity assessed as DPPH radical scavenging activity after 30 mins by spectrophotometric analysis
Assay type: functional
pEC50: −log10 of the molar value.
PROPERTY_NAME: pEC50

>  <COMPOUND>
COc1ccc2[nH]c(-c3ccccc3)nc2c1

>  <REPORTED_RESULT>
< 3.70

$$$$

Prompt line: # pEC50 lookup, item "Oc1ccc2[nH]c(-c3ccccc3)nc2c1"
Response line: 4.38

Prompt line: Follow-up item: "COc1ccc2[nH]c(-c3ccc(O)cc3O)nc2c1"
Response line: 3.89

###

Tested on: Escherichia coli
PROCEDURE_TEXT: Antibacterial activity against Escherichia coli after 24 hrs by agar dilution method
Format: functional
PROPERTY_NAME: MIC (µM)

>  <MOL_SMILES>
COc1ccc(-c2nc3cc(OC)ccc3[nH]2)cc1

>  <TARGET_UNDER_TEST>
Escherichia coli

>  <MIC / µM>
6.25

$$$$

a = c1ccc(-c2nc3ccccc3[nH]2)cc1
b = COc1ccc(-c2nc3cc(O)ccc3[nH]2)c(OC)c1
c = COc1ccc2[nH]c(-c3ccccc3O)nc2c1
Prompt line: Arrange items by their MIC values in increasing order. Answer format: the labels, in the requested order.
Response line: a, b, c

###

Test system: Radical scavenging activity
PROCEDURE_TEXT: Antioxidant activity assessed as DPPH radical scavenging activity after 30 mins by spectrophotometric analysis
Format: functional
pEC50: −log10 of the molar value.
PROPERTY_NAME: pEC50

>  <MOL_SMILES>
Oc1ccc2[nH]c(-c3ccc(O)c(O)c3)nc2c1

>  <REPORTED_RESULT>
4.48

$$$$

1 = Oc1cccc(-c2nc3cc(O)ccc3[nH]2)c1
2 = COc1ccc(O)cc1-c1nc2cc(O)ccc2[nH]1
Prompt line: Param metric = pEC50; output whichever of 1 , 2 has the minimum value. Please indicate the selected item by its label.
Response line: 1
(1: 4.40, 2: 4.64)

###

System: Bacillus cereus
PROCEDURE_TEXT: Antibacterial activity against Bacillus cereus after 24 hrs by agar dilution method
Format: functional
PROPERTY_NAME: MIC (µM)

Study these solved cases before continuing.
>  <COMPOUND>
COc1ccc2[nH]c(-c3ccc(OC)c(OC)c3)nc2c1

>  <RESULT_UNITS>
µM

>  <MIC>
25

$$$$
>  <COMPOUND>
COc1ccc(O)cc1-c1nc2cc(O)ccc2[nH]1

>  <RESULT_UNITS>
µM

>  <MIC>
100

$$$$
>  <COMPOUND>
COc1ccc(-c2nc3cc(O)ccc3[nH]2)c(OC)c1

>  <RESULT_UNITS>
µM

>  <MIC>
50

$$$$

P = COc1ccc2[nH]c(-c3ccccc3O)nc2c1
Q = Oc1cccc(-c2nc3cc(O)ccc3[nH]2)c1
R = COc1ccc(-c2nc3cc(OC)ccc3[nH]2)cc1
S = COc1ccc(OC)c(-c2nc3cc(OC)ccc3[nH]2)c1
Prompt line: Arrange items by their MIC values in increasing order. Answer format: the labels, in the requested order.
Response line: Q, R, S, P
(Q: 25 µM, R: 50 µM, S: 100 µM, P: 200 µM)

1 = Oc1ccc2[nH]c(-c3ccccc3)nc2c1
2 = Oc1cc(O)cc(-c2nc3cc(O)ccc3[nH]2)c1
Prompt line: Larger number for MIC: 1 , or 2 ? Please indicate the selected item by its label.
Response line: 1
